Assay: NCI Yeast Anticancer Drug Screen. Data for the mec2-1 strain (AID 157)
Details: S. cerevisiae mec2-1 strain, at 50.0 µM, hits give high values
The panel holds about 79,000 compounds, 15% with a hit somewhere; the sample as a whole holds those more often.
Rule: growth inhibition of -10% or more gives 1.0; anything lower gives 0.0.

The examples below pair each entry with its known result.
CCCNC(=S)/N=C/c1c(O)c2ccccc2[nH]c1=O ... 0.0
COC1=CCC=C(C(C)(C)C)C1 ... 0.0
NC(=S)N1CCCC1 ... 0.0
CCOC(=O)c1c(N)sc2c1C(C(=O)OCC)CCC2 (stereo not drawn) ... 0.0
CCCCCCCCCCCC(=O)OCCS(=O)(=O)CCOC(=O)CCCCCCCCCCC ... 1.0

With those in mind, consider the next compound.
## Input Could you tell me if the measured growth inhibition of `Cc1ccc(C(=O)Oc2ccccc2)cc1` reaches -10% or more?
## Output 1.0

These measurements were taken from PubChem BioAssay (NCI).
